Field: inhibition. Provide a value for each of the molecules that follow.
target: 1-phosphatidylinositol 4,5-bisphosphate phosphodiesterase beta-3 (Homo sapiens) (UniProt Q01970); assay: phospholipase C beta3 enzyme inhibition – biochemical, fluorescence, primary screen (AID 720704); settings: Purified PLC-beta3, fluorogenic substrate, at 12.2 µM, hits give high values;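 further: 0% = median of compound wells on plate and 100% = full blocker control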
Sequence (Q01970 whole entry, looked up): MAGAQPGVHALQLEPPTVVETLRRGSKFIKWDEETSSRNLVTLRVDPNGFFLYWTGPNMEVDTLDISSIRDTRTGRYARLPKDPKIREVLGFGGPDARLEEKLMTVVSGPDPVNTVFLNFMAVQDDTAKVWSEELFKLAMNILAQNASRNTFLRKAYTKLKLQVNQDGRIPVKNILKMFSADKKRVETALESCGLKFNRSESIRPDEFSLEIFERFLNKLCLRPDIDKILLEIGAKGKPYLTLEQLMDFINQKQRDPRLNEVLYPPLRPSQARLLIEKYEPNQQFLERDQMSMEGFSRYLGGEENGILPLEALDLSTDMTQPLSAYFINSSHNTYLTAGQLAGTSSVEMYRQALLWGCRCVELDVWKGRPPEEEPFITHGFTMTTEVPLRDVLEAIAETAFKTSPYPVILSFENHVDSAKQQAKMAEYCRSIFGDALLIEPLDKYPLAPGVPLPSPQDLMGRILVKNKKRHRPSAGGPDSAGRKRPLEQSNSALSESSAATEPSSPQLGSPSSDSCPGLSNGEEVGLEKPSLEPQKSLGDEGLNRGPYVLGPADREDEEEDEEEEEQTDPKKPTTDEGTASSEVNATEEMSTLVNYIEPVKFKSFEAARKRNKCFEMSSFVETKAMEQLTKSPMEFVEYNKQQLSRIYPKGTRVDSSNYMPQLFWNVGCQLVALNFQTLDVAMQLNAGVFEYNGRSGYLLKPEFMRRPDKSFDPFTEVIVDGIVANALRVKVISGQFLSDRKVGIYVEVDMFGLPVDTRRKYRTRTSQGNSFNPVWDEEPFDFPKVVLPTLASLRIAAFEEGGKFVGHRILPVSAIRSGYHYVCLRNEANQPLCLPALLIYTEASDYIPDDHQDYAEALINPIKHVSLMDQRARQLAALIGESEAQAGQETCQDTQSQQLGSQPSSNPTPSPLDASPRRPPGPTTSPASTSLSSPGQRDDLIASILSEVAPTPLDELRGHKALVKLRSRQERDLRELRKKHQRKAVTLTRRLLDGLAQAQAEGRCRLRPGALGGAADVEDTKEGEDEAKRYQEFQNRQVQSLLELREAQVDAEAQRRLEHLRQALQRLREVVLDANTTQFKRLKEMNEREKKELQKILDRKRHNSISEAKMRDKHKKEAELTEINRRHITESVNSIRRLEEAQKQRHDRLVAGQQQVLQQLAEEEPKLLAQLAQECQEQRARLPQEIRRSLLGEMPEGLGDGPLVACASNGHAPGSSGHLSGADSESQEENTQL
The campaign covered roughly 370,000 compounds. About 660 (0.18%) were called active. This is one part of a sample in which actives are shown more often than they occur.
A number alone suffices; assume %.

Report inhibition for Cc1cc(NC(=O)COc2ccccc2C#N)no1 please.
-4.84

Now consider COc1ccc(C(=O)NC2CC2)cc1OC1CCN(Cc2ccc(SC)cc2)CC1 .
-5.08

Again, but for COCCNc1ccc(-c2n[nH]c(=O)c3ccccc23)cc1[N+](=O)[O-]
-3.71

Likewise for O=C(COc1ccc(Cl)cc1)N1CCN(c2cccc(C(F)(F)F)c2)CC1 ?
13.8

Lookup Cc1nc(Nc2ccccc2C)c2cnn(C)c2n1
13.1

Same question, CCOC(=O)N1CCN(Cc2nc(Cc3cccc(C(F)(F)F)c3)no2)CC1 this time
-6.49

Then Cc1cc(C)c2nc(SCC(=O)N(C)C3CCS(=O)(=O)C3)cc(C)c2c1 (stereo unspecified) ?
2.26

Entry to check: Cc1c(C)c2ccc(OCC(=O)N3CCN(c4cccc(Cl)c4)CC3)cc2oc1=O
-8.02

Another: CC1=CC(=O)C=CC1(C)C(Cl)(Cl)Cl (stereo unspecified)
0.48

Check CCNC(=S)N1CCC(c2nc3cc(C)c(C)cc3[nH]2)CC1 too.
0.08

Then this molecule: O=C(c1ccc(OC2CCN(C/C=C/c3ccc(F)cc3)CC2)cc1)N1CCCCC1
-10.6

Let us now turn to Cn1ncc2c(Nc3cccc4ccccc34)ncnc21
-6.23

And the next one, Cc1nc2nc(COc3ccccc3)[nH]n2c(=O)c1C ?
2.74

Now this one: Cc1cc(NC(=O)CSCc2ccccc2C)no1
-0.65

Now consider CN(C(=O)c1cccc(NC(=O)Cc2cccc(NC(=O)C3CCCN(C(=O)C4CC4)C3)c2)c1)C1CCC1 (stereo unspecified) .
1.11

Now the molecule CCCOc1cccc(C(=O)Nc2ccccc2C(=O)N2CCN(C)CC2)c1
-3.82
